assayed_system: soybean lipoxygenase (Glycine max, UniProt P08170)
Construct: gene LOX1.1
Sequence (P08170 1-839): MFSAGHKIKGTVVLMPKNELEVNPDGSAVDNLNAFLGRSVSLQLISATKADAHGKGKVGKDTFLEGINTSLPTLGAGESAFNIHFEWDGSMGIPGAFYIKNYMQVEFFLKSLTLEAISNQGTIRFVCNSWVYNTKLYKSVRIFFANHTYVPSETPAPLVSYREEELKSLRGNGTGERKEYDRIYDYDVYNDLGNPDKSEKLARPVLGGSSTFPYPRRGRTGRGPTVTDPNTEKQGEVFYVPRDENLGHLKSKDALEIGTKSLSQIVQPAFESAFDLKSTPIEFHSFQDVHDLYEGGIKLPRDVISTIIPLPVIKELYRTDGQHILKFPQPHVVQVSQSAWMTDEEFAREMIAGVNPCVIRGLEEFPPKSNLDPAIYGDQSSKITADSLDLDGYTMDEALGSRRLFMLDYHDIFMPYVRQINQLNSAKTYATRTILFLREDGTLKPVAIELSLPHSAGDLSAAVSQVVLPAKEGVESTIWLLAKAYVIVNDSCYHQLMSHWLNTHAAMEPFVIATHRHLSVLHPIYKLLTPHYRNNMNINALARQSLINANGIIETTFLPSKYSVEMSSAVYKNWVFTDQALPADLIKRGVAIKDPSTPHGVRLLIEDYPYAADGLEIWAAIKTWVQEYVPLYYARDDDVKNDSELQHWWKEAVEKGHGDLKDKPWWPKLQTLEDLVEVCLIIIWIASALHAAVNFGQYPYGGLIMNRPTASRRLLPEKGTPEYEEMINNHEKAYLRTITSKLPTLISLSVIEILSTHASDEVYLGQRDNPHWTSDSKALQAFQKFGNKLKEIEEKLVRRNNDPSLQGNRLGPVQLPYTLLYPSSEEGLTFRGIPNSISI
protocol: UV assay at […] nm of sodium linoleate oxidation by soybean lipoxygenase (Sigma)
Assay type: biochemical
assay_setup: read-out: % Inhibition of LOX 100 μM or IC50 (μM) *
property_name: IC50 (µM)

P. O=Nc1c(NC(=O)/C=C/c2cccc3ccccc23)[nH]c(N2CCCCC2)nc1=O
Q. O=Nc1c(NC(=O)/C=C/c2cccs2)[nH]c(N2CCCCC2)nc1=O
Enquiry: // max by IC50 over [ P , Q ] Record your answer as the label of the chosen record.
Return: Q
(Q: 10.7 µM, P: 1.1 µM)
